FYI, the data here is from ChEMBL document CHEMBL6074670.

- target.under.test: Pyrin (Homo sapiens, UniProt O15553)
- Sequence (O15553 whole entry): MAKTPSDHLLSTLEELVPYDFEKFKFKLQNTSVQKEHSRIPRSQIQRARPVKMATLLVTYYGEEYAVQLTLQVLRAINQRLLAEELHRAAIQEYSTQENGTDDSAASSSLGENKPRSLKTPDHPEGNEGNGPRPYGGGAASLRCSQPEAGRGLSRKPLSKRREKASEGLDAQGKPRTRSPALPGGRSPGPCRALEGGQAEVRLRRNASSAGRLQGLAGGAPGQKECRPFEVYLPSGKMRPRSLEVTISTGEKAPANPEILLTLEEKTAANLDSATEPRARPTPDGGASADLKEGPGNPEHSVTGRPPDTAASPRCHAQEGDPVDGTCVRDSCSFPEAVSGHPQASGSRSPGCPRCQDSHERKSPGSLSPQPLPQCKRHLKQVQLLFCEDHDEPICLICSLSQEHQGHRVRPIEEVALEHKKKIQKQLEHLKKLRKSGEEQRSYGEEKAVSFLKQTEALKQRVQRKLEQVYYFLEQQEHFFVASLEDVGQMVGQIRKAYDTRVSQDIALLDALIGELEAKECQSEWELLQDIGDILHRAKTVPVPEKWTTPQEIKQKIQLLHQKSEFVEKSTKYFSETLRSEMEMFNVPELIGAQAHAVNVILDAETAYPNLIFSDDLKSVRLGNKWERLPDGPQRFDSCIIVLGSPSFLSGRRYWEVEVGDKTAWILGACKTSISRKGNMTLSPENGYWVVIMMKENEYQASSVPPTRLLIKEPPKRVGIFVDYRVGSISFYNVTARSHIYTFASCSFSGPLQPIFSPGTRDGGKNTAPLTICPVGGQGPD
- protocol.text: Inhibition of pyrin inflammasome activation in human U-937 cells assessed as IL-1beta secretion preincubated for 1 hr followed by BAA473 addition and measured after 4 hrs
pIC50: −log10 of the molar value.
property: pIC50

// returns reported pIC50 for input CCN1CCC[C@@H](Nc2ccc(-c3c(C)cc(C(F)(F)F)cc3O)nn2)C1
< 4.48

----------
- target.under.test: NACHT, LRR and PYD domains-containing protein 3 (Mus musculus)
- protocol.text: In vivo inhibition of NLRP3 in LPS/ATP-induced C57BL/6JRi mouse peritonitis model assessed as reduction in IL-1beta level at 3 mg/kg, po preadministered with compound for 3 hrs followed by LPS stimulation for 2 hrs and measured 15 mins after ATP addition
- Assay type: functional, organism-based
- condition.description: time 315.0 min
Here the recorded inhibition is given for each entry.
Expressed in %, but write only the number.

test.smiles | target.under.test | inhibition (%)
Cc1cc(C(F)(F)F)cc(O)c1-c1ccc(N[C@@H]2CCCN(CCO)C2)nn1 | NACHT, LRR and PYD domains-containing protein 3 (Mus musculus) | 99.6

Name the recorded inhibition for Cc1cc(C)c(-c2ccc(N[C@@H]3CCCN(C)C3)nn2)c(O)c1 .
99

What value of measured inhibition is listed for Cc1cc(C(F)(F)F)cc(O)c1-c1ccc(N[C@@H]2CCCN(C)C2)nn1 ?
99.5

Quick one: inhibition of CCN1CCC[C@@H](Nc2ccc(-c3c(C)cc(C(F)(F)F)cc3O)nn2)C1 ?
99.4
